Target System: RhlR (Pseudomonas aeruginosa)
Construct: expressed in transfected cells; host or cells: E. coli JLD271 (K-12 ΔlacX74 sdiA271::Cam) carrying pJN105-R2 (RhlR expression) and pSC11-rhlI (rhlI'-lacZ reporter)
Sequence (P54292 whole entry): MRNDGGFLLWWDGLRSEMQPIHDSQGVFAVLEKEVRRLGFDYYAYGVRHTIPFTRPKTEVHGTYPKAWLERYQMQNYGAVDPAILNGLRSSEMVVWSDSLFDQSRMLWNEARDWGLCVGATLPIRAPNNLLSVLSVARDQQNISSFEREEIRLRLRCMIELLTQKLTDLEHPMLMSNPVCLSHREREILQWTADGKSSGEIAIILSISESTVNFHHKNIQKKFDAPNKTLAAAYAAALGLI
Assay Explanation: P. aeruginosa PA14 ΔrhlIΔlasI RhlR GFP reporter antagonism assay
Type: cell-based
Endpoint Label: IC50

// recorded IC50 for `O=C1OCC[C@@H]1NS(=O)(=O)c1cccc(Br)c1` : > 1000 µM

// recorded IC50 for `O=C1OCC[C@@H]1NS(=O)(=O)c1ccc(Cl)c(Cl)c1` : > 1000 µM

// recorded IC50 for `O=C1OCC[C@@H]1NS(=O)(=O)c1ccc(F)c(F)c1` : > 1000 µM
